System: Community 6
Assay: relative growth (AUC of 72 h growth curve relative to DMSO control, dAUC) (ratio); higher = more growth (less inhibition), active = hit call of the paper;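 active = growth AUC significantly below the DMSO wells by Dunnett test; inactive = the rest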
Details: 20 µM
Respond with a class label; see active, inactive

Please review the following examples before continuing.
>>> group("CCOP(=S)(OCC)Oc1nc(Cl)c(Cl)cc1Cl")
"inactive"
>>> group("CC(Oc1ccc(Oc2nc3ccc(Cl)cc3o2)cc1)C(=O)O (stereo not given)")
"inactive"
>>> group("CC1(C)C(C=C(Cl)Cl)C1C(=O)OCc1cccc(Oc2ccccc2)c1 (stereo not given)")
"inactive"

Short answer needed: outcome of this test for CC[C@H](C)C1O[C@]2(C=C[C@@H]1C)C[C@@H]1C[C@@H](C/C=C(\C)[C@@H](O[C@H]3C[C@H](OC)[C@@H](O[C@H]4C[C@H](OC)[C@H](NC)[C@H](C)O4)[C@H](C)O3)[C@@H](C)/C=C/C=C3\CO[C@@H]4[C@H](O)C(C)=C[C@@H](C(=O)O1)[C@]34O)O2 (stereo not given in full) ?
active

Likewise for CCNC(=O)NC(=O)/C(C#N)=N/OC ?
inactive

Same again, this time with CC[C@H]1CCC[C@H](O[C@H]2CC[C@H](N(C)C)[C@@H](C)O2)[C@@H](C)C(=O)C2=C[C@@H]3[C@@H](C=C(C)[C@@H]4C[C@@H](O[C@@H]5O[C@@H](C)[C@H](OC)[C@@H](OC)[C@H]5OC)C[C@@H]34)[C@@H]2CC(=O)O1.CC[C@H]1CCC[C@H](O[C@H]2CC[C@H](N(C)C)[C@@H](C)O2)[C@@H](C)C(=O)C2=C[C@H]3[C@@H]4C[C@H](O[C@@H]5O[C@@H](C)[C@H](OC)[C@@H](OC)[C@H]5OC)C[C@H]4C=C[C@H]3C2CC(=O)O1
inactive

Can you handle COc1ncc(F)c2nc(S(=O)(=O)Nc3c(F)cccc3F)nn12 next?
inactive

Param item: N#CCNC(=O)c1cnccc1C(F)(F)F
inactive

* * *

The following compounds are listed with their measured relative growth values.
Tested on: Flavobacterium 2 (Flavobacterium succinicans)
Assay: relative growth (AUC of 72 h growth curve relative to DMSO control, dAUC) (ratio); higher = more growth (less inhibition), active = hit call of the paper
Conditions: 20 µM
Note: the reply should be a number with no unit written.

Find the measured relative growth: item CCN(CC)c1nc(C)cc(OP(=S)(OC)OC)n1 , target or system Flavobacterium 2 (Flavobacterium succinicans).
0.995

Also CS(=O)(=O)c1cc(C(F)(F)F)ccc1C(=O)c1cnoc1C1CC1 ?
1.07

What do you get for CCC(C)c1ccccc1OC(=O)NC (stereo unspecified) ?
1.02

Next compound: Clc1ccc(C(c2ccc(Cl)cc2)C(Cl)(Cl)Cl)cc1
0.979

Try the compound Cc1ccc(/N=C/N(C)/C=N/c2ccc(C)cc2C)c(C)c1
1

Cool, now CNC(=O)ON=C(C)SC
1.03

Subsequent entry: C[C@@H]1[C@@H](c2ccc(Cl)cc2)SC(=O)N1C(=O)NC1CCCCC1
1.02

Try this compound too: CCNC(=O)NC(=O)/C(C#N)=N/OC
0.994

# repeat for COCC(=O)N(c1c(C)cccc1C)[C@H](C)C(=O)OC
1.02

CS(=O)(=O)NC(=O)c1cc(Oc2ccc(C(F)(F)F)cc2Cl)ccc1[N+](=O)[O-] , same question.
1.02

Follow-up item: CC(C)(C)c1ccc(CSc2cnn(C(C)(C)C)c(=O)c2Cl)cc1
1

Try this compound too: CCCCOC(=O)[C@H](C)Oc1ccc(Oc2ccc(C#N)cc2F)cc1
0.955

Okay, and COC(=O)NC(=S)Nc1ccccc1NC(=S)NC(=O)OC ?
0.993

This collection of values is drawn from the supplement of paper PMC12067926.
